Assay: yeast display, Sf9 membrane polyspecificity reagent, FACS + sequencing; frameworks hold sequencing errors

| inputSequence | polyreactivity (PSR sort gate) |
| --- | --- |
| QVQLVESGGGLVQAGGSLRLSCAASGRTFRRNAMGWYRQAPGKERELVADISNGDSTKYADSVKGRFTISRDNAKNTVYLHMNRLKPVDTAVYYCNAQRYRVVVYNSHGWQTRNYWGQGTQVTVSS | low polyreactivity |
| QVQLVESGGGLVQAGGSLRLSCAASGSIFFTNAMGWYRQAPGKERELVASITSSGGSTYYADSVKGRFTISRDNAKNTVYLQMNSLKPEDTAVYYCARDRWPFWYSPSGVYRYYYWGQGTQVTVSS | low polyreactivity |
| QVQLVDSGGGLVQAGGSLRLTCAASGTFYYYAMGWNRQAPGKERELVAAISYSGGRTYYADSVKGRFTISRDNAKNTVYLQMNSLKPEDTAFYYCNTDARSKKYIFDFDYWGQGTQVTLSS | high polyreactivity |
| QVQLVESGGGLVQAGGSLRLSCAASGSIFEYNAMGWYRQAPGKERELVAAITRGGNTYYADSVKGRFTISRDNAKNTVYLQMNSLKPEDTAVYYCAAVQWYGYPYYSWGQGTQVTVSS | low polyreactivity |
| QVQLLESGGGLVQPGGILRLSCAASGSTFVRYAMGWYRQAPGKERELVAAISYRGGSTYYADSVKGLFTISRDNANNSVYLELYSLKPEDTAVYYCAAESRHVEGEYWGQGTQVTVSS | high polyreactivity |
| QVQLVESGGGLVQAGGSLRLSCAASGITFSRYAMGWYRQAPGKERELVAAITARGGTTYYADSVKGRFTISRDNAKNTVYLQMNSLKPEDTAVYYCAAYKTYGSKYVFVDPGEYDYWGQGTQVTVSS | high polyreactivity |
| QVQLVESGGGLVQAGGSLRLSCAASGGIFDINAMGWYRQAPGKERELVAAITQSGGSTYYADSVKGRFTISRDNAKKTVYLQMNSLKPEDTAVYYCAKAVWYQGFDYWGQGTQVTVSS | high polyreactivity |
| QVQLVESGGGLVQAGGSLRLSCAASGRTFRIYAMGWYRQAPGKERELVAAITKRGGITYYADSVKGRFTISRDNAKNTVYFQMNSLKPEDTAVYYCNKLPEPYDYDYWGQGTQVTVSS | high polyreactivity |
| QVQLVESGGGLVQAGGSLRLSCAASGITIYYYAMGWYRQAPGTERELVAAISTTVGSTYYADSVKGRFTISRDNAKNTVYLQMNSLKPEDTAVYYCNAYRVYAWIEYNYWGQGTQVTVSS | low polyreactivity |
| QDQLVESGGGLVQAGGSLRLSCAASGNNYWTNAMGWYRQAPGKERELVAAISWSGDSTYYADSVKGRFTISRDNAKNTVYLQLNSLKPEDTAVYYCAVLDVYRYRMDYWGQGTQVTVSS | low polyreactivity |
| QVQLVESGGGLVQAGGSLRLSCAASGSIFIYNAMGWYRQAPGKERELVAAISSSGGSTYYADSVKGRFTISRDNAKNTVYLQMNSLNPEDTAVSYCAARTYYVRGLGGRPGMDYWGQGTQVTVSS | low polyreactivity |

====

Test: yeast display, Sf9 membrane polyspecificity reagent, FACS + sequencing; frameworks hold sequencing errors

| inputSequence | polyreactivity (PSR sort gate) |
| --- | --- |
| QVQLVESGGVLVQAGGSLRLSCAASGSTFGRYTMGWYRQAPGKERELVAVITKSGGSTYYADSVKGRFTISRDNAKNTVYLQMNSLKPEDTAVYYCAAGVAWRFYSWGQGTQVTVSS | high polyreactivity |
| QVQLVESGGGLVQAGGSLRLSCAASGSTFYANAMGWYRQAPGKERELVAAISWRGGSTYYADSVKGRFTISRDNAKNTVYLQMNSLKPEDTAVYYCNRVQRYIRHGDYWGQGTQVTVSS | high polyreactivity |
| QVQLVESGGGLVQAGGSLRLSCAASGSTFYTYTMGWYRQAPGKERELVAAISSSGGDTYYADSVKGRFTISRDNAKNTVYLQMNSLKPEDTAVYYCAALGAFPSLEFDYWGQGTQVTVSS | low polyreactivity |
| QVQLVESGGGLVQAGGSLRISCAASGITFSENDMGWYRQAPGKERELDAAISSGDGTNYADSVKGRFTISRDNEKNTVYLQMNSLKPEDTAVYYCNADGFVDWAWSEQYIPNIHLDYWGQGTQVTVSS | low polyreactivity |
| QVQLVESGGGLVQAGGSLRLSCAASGSTFSPYAMGWYRQAPGKDRELVAAISYDGASTYYADSVKGRFTISRDNAKNTVYLQMISLKPEDTAVYYCAADYFRSYEGTYWVVASYYYWGQGTQVTVSS | low polyreactivity |
| QVQLVESGGGLVQAGGSLRLSCDASGFIFNAYAMGWYRQAPGKERELVAAISTRGSNTYYADSVKGRFTISRDNAKNTVYLQMNSLKPDDTAVYYCAARGYVTFSKSNYWGQGTQVTVSS | high polyreactivity |
| QGQLVDSGGGLVQAGGSLRLICAASGYIFRLYAMGWYRHAPGKERELVAAISRRGGSTYYADSVKGRFTISRDNAKITVYLQMNSLKPEDTAVYYGATDHSYIDDYWGQGTQVTVSS | high polyreactivity |
| QVQLVESGGGLVQAGGSLRLSSAASGIIFKSYAMGWYRPAPGKERELVSAISGGGDTYYAYSVKGRFTISRDNAKNTVNLQMNSLKPEDTAVYYCNTDGSQGTIIAIFVKYDYWGQGTQVTVSS | low polyreactivity |
| QVQLVESGGGLVQAGGRLRLSCAASGRSYPPYAMGWYREAPGKERELLAAISYSGGSTYYADSVTGRFTISRDNAKNPVYLQMNSLKPEDTSVFYCNKDISREVGIRMDDWGQGTQVTVSS | high polyreactivity |
| QVQLVESGGGLVQAGGSLRLSCAASGFTFSFYAMGWYRQAPGKERELVATISSGGSTTYAVSVKGRFTISRDNAKNTVYLQMNSLKPEDTAVYYCNARPGQSGARFGYWGQGTQVTVSS | high polyreactivity |
| QVQLVESGGGLVHAGGSLRLSCAASGSIFGWYVMGWYRQAPGKERELVAAISSVGSTYYADSVKGRFTISRDNAKNTVCLQMNSLKPEDTAVYYCAKLRYPYLFWDDSEYWGQGTQVTVSS | low polyreactivity |

====

Assay: yeast display, Sf9 membrane polyspecificity reagent, FACS + sequencing; frameworks hold sequencing errors

| inputSequence | polyreactivity (PSR sort gate) |
| --- | --- |
| QVQLVESGGGIVQAGGSLRLSCDASGNTFKGYAMGWYRQAPGTESELVAAISWSGSSTYYADSLKGRFTISRDNAKNTVYFQLNSLKQEDPAVFSCNRKYLGRYASVYGYGYWGQGTQVTVSS | high polyreactivity |
| QVQLVESGGGLVQAGVSLRLSCAASGSIFYEYAMGWYRQAPGKEREFVAAISSSGGSTYYADSEKGRFTISRDNAKNSVYLQMNSLKPEDTAAYYCNAQVGGVSFEYDYWGQGTQVTVSS | low polyreactivity |
| QVQLVESGGGLVQAGGSLRLSCAASGLIFYFYVMGWYRQAPGKERELVAGIDTGSSTNYADSVKGRFTISRDNAKNTVYLQMNSLKPEDTAVYYCAADSVSKYGSDYWGQGTQVTVSS | low polyreactivity |
| QVQLVDSGGGLVQGGGSLRLSCAASGRTFGIYPMRWYRPAPGKERELVAAISRRGTSTYYADTVKGRFTISRDNAKNTVYLQLNSLKPEDTAVYYCATVGATVDNRDDYWGQGTQVTVSS | high polyreactivity |
| QVQLVESGGGLVQAGGSLRLTCAASGRNFSQNAMGWYRQAPGKERELVAAISVTGGRTYYADSVKGRFTISRDNAKNTVYLQMNSLKPEDTAVYYCAKRTRSPGYYYWGQGTQVTVSS | high polyreactivity |

====

Assay: yeast display, Sf9 membrane polyspecificity reagent, FACS + sequencing; frameworks hold sequencing errors

| inputSequence | polyreactivity (PSR sort gate) |
| --- | --- |
| QVKLVESGGGLVQAGGSLRLSCAASGSIFPRYAMGWYRQAPGKERELVAAITGSGSSTYYADSVKGRFTISRDNAKNTVYFQMNSLKPEDTAVYYCAARKARPPFPHPFDYYWGQGTQVTVSS | low polyreactivity |
| QVQLVESGGGLVQAGGSLRLSCAASGRTFYDYAMGWYREAPGKEMELVASIRGSDGSTYYADSVKGRFTISRDKAKNTVYLQMNSLKPEDTSVYYCAARGFYGTNGRVYITSYYYLGQGTQVTVSS | high polyreactivity |
| KVQLVESGGGLVQAGGSLGLSCAASGSIFPSNFMGCYRQAPGKERELFAAISNTGSTYYADSVKGRVTISRDNAKNTVYLQMNSLKPEDTAVYYCAAEYWSYAHGGQLYGYDYWGQGSQVTVSS | low polyreactivity |
| QVQLVESGGGLVQAGGSLRLSCAASGFTFYTNAMGWYRQAPGHERELVARISRRGGSTYYADSVKGRFTISRDNAKNTVYLQMNSLKPEDTAVYYCNADGRAAVQYDYWGQGTQVTVSS | high polyreactivity |
| QVQLVESGGCLFQAGASLRLSCAASGRILAYYAMGWYRQAPGKERELVAAITSGGRTYYADSVKGRFTISRDNAKNTVYLQMNSLKPEDTAVYYCNRVTGYDSGDGYWGQGTQVTVSS | high polyreactivity |
